Each recorded value in this set is attributed to the supplement of paper PMC9170038.

- Tested on: K4 kissing-loop RNA reporter;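 further: bound reporter read as fluorescence of individual clusters on recovered sequencing chips by microscopy, with normalized cluster intensities fitted with a binding model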
- ASSAY TEXT: apparent KD of K4 kissing-loop reporter; higher = weaker reporter binding
- EXPERIMENTAL CONDITIONS: Eterna round: R107; input ligand: FMN 200 uM
MEASUREMENT LABEL: apparent KD of K4 kissing-loop reporter

{"SEQUENCE ENTRY": "CGCGUUGGUUGAGAGGUUGGCGCGAAUGAUACCAGUAUAUAAGAAUACCCUUGGCAGCAUAAGAAAGAUAUAGUGAUGUUGUAUA [SSTheophA.I]", "VALUE OBSERVED": "469 nM"}
{"SEQUENCE ENTRY": "UGUCAUUGGUCUGAUACCAGUACCCUUGGCAGCCAAGGAGUGAUGUUCCAAGGAUACCAGUGCCCUUGGCAGCAGACCGAUGACU [TheoBS 12 #DoubleAptamer #SwitchBubble]", "VALUE OBSERVED": "920 nM"}
{"SEQUENCE ENTRY": "CAUACGCAUGGAGGAUAUGAGAUUUCUCAUAUUAUUUAUUAUUCUCAGUGAUGUUGGGAUUUAAACUCAGAAGGCCAUGUGUAUG [Ex FMN B 8]", "VALUE OBSERVED": "252 nM"}
